I'd appreciate it if you could supply protein stability index values for the items below.
# Tested on: Saccharomyces cerevisiae;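 also: PSI is a weighted mean of sequencing reads over stability bins, variants kept only with over 10 reads, mCherry proximal and sfGFP distal, peptide attached via GGGS linker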
# assay.notes: protein stability index of tFT-peptide fusion (C-terminal peptide) (PSI (0-1 scale)); higher = more stable (slower turnover)
# test.settings: genetic background: wild type; temperature: 30 C
Give bare numbers.

Some entries whose results are on file:
- ordered.residues: "DNARCKSPRSLN"
  quantity: "protein stability index"
  readout.number: 0.621
- ordered.residues: "FSHLYCSLVTTD"
  quantity: "protein stability index"
  readout.number: 0.681
- ordered.residues: "FVWAVGLVSASV"
  quantity: "protein stability index"
  readout.number: 0.503
- ordered.residues: "SGWSVGVMGESG"
  quantity: "protein stability index"
  readout.number: 0.627
- ordered.residues: "PRYRTPPLPPPG"
  quantity: "protein stability index"
  readout.number: 0.55
- ordered.residues: "PKKREKKKKKEK"
  quantity: "protein stability index"
  readout.number: 0.66
- ordered.residues: "RPPPPTAPPPSR"
  quantity: "protein stability index"
  readout.number: 0.719
- ordered.residues: "FPCIFFFCLFIL"
  quantity: "protein stability index"
  readout.number: 0.271
- ordered.residues: "LVLFFRSYCLVV"
  quantity: "protein stability index"
  readout.number: 0.514
- ordered.residues: "VSSTLVARTVWC"
  quantity: "protein stability index"
  readout.number: 0.69

// input: 8 sequences below; output: protein stability index for each
1. NTLTSCRPVASK
2. GLVGRGGAVGEW
3. QVSLLVKKSKLR
4. SPSPAPPTRSPS
5. CACYILHGRSNP
6. RDLYHPFQSHQS
7. SLSIWSTSPPAA
8. RRSRTEVVAVGG

1. 0.704
2. 0.686
3. 0.679
4. 0.696
5. 0.684
6. 0.705
7. 0.691
8. 0.676

Attribution: the supplement of paper PMC10724198
